test system: U-251; experiment: NCI tumour cell line growth inhibition, 48 h
Calls of active or inactive are those of the source. No stated cut-off is given here; in the data, active = GI50 up to about 1.1 µM and inactive = higher.
Possible outcomes: active, inactive

compound="C/C=C(/C)C(=O)O[C@@H]1CCN2CC[C@H](COC(=O)/C(=C/C)CO)C12 (stereo partly drawn)" group_label=inactive
compound="CN(C)CCOC1(Cc2ccc(Cl)cc2Cl)CCC(C(C)(C)C)CC1 (stereo not drawn)" group_label=inactive
compound="NC1=NC(=O)C(CC(=O)Nc2ccc([N+](=O)[O-])cc2[N+](=O)[O-])S1 (stereo not drawn)" group_label=inactive
compound=CNc1cc([N+](=O)[O-])ccc1C(=O)N1CCC[C@H]1CO group_label=inactive
compound=CC(=O)Nc1ccc2oc(=O)c3ccccc3c2c1 group_label=inactive
compound="CC(=O)NC1C(OCc2ccccc2)OC(CO)C(O)C1OCC(=O)N1CCCC1C(=O)NC(CCC(=O)NCCCCCNc1c2ccccc2nc2cccc([N+](=O)[O-])c12)C(N)=O (stereo not drawn)" group_label=active
compound=COc1ccc2c(c1)[C@@]13CCN4CC5=CCO[C@H]6CC(=O)N2[C@H]1[C@H]6[C@H]5C[C@H]43 group_label=inactive
compound="CC(=O)[C@@]1(O)CC[C@H]2[C@@H]3C[C@H](C)C4=CC(=O)C=C[C@]4(C)[C@@]3(F)[C@@H](O)C[C@@]21C [FLUOROMETHOLONE]" group_label=inactive

* * *

system: KM12; experiment: NCI tumour cell line growth inhibition, 48 h
The source made the active and inactive calls. Cut-off read from the data, not from the text of the source: active = GI50 up to about 1.1 µM and inactive = higher.
Listing: GI50 of selected compounds
attribute_measured: GI50

compound=CCOP(=O)(OCC)C(=C1C=C(C(C)(C)C)C(=O)C(C(C)(C)C)=C1)P(=O)(OCC)OCC test_system=KM12 result="> 10 µM (inactive)"
compound=C1CN(c2nnc(N3CCC3)nn2)C1 test_system=KM12 result="> 89.5 µM (inactive)"
compound=Nc1nc(NNc2ccccc2F)cc(=O)[nH]1 test_system=KM12 result="> 100 µM (inactive)"
compound=Cc1cc(C)nc(NS(=O)(=O)c2ccc(NNc3c4ccccc4nc4c(C(=O)Nc5ccc(S(N)(=O)=O)cc5)cccc34)cc2)n1 test_system=KM12 result="34 µM (inactive)"
compound="O=C1CS(=O)(=O)C(c2cccc(Oc3ccccc3)c2)N1C1CC1 (stereo not given)" test_system=KM12 result="31.4 µM (inactive)"

* * *

Listing: GI50 of selected compounds
system: NCI-H460; assay: NCI tumour cell line growth inhibition, 48 h
Active and inactive are the calls of the source. Rule as the data show it: active = GI50 up to about 1.1 µM and inactive = higher.
attribute_measured: GI50

compound="CCc1ccccc1NC(=O)C(C#N)C1=C(Cl)C(=O)c2ccccc2C1=O (stereo not given)" result="19.7 µM (inactive)"
compound="COC(=O)[C@@H]1[C@H](OC(C)=O)CCC2[C@@]3(C[C@@H](c4ccoc4)O[C@@H]3OC)[C@H](C)CC[C@]21C(=O)OC (stereo not given in full)" result="> 25 µM (inactive)"
compound="COC(=O)C(=O)C(CC(=O)Nc1cccc(C(F)(F)F)c1)C(=O)OC (stereo not given)" result="> 100 µM (inactive)"
compound=CCSCN(C)c1nc(N(C)C)nc(N(C)C)n1 result="39.8 µM (inactive)"
compound=c1ccc(Nc2nn3c(CCCCCCCCc4nnc5sc(Nc6ccccc6)nn45)nnc3s2)cc1 result="32.4 µM (inactive)"
